Origin of measurements: patent US9687479B2

# target-or-test-system: Human KLKB1 (Homo sapiens (Human), UniProt P03952)
# Sequence (P03952 391-638 limits assumed): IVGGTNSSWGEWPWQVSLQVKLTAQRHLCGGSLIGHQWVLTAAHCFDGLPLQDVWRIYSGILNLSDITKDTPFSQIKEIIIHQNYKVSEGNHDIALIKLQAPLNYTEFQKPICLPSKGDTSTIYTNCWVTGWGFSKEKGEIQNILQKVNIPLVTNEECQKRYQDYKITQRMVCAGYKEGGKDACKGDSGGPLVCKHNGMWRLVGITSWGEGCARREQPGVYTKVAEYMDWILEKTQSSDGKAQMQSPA
# Sequence (P03952 20-390 partner limits assumed): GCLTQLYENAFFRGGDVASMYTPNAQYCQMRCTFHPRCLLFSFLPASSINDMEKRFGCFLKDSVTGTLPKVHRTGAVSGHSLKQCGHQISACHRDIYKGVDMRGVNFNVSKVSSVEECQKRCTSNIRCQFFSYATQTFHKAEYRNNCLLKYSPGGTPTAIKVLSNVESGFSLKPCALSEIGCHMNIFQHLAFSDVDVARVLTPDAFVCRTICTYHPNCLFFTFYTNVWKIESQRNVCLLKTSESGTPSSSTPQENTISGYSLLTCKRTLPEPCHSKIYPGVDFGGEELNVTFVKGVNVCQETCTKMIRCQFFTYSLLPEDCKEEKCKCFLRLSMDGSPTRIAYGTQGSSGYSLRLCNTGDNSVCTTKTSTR
# assay-comment: KLKB1 kallikrein activity inhibition assay (chromogenic substrate S-2302)
# Assay type: biochemical
# condition-notes: Table C
pIC50: −log10 of the molar value.
Listing of recorded pIC50 by entry.

Study these solved cases before continuing.
compound="CCCC(=O)n1nc(-c2ccccn2)nc1NCc1ccc(F)cc1 [Cmpd 306]" measured_metric=pIC50 recorded_value="4.00 to 5.00"
compound="O=C(Cc1ccccc1)n1nc(-c2ccccn2)nc1NCc1ccc(F)cc1 [Cmpd 303]" measured_metric=pIC50 recorded_value="5.00 to 6.00"
compound="O=C(c1cccnc1)n1nc(-c2cccnc2)nc1NCc1cccs1 [Cmpd 365]" measured_metric=pIC50 recorded_value="5.00 to 6.00"
compound="O=C(c1ccccc1Cl)n1nc(-c2cccs2)nc1NCc1ccccc1 [Cmpd 396]" measured_metric=pIC50 recorded_value="6.00 to 7.00"

Query: I am curious: what pIC50 value has been reported for O=C(Oc1ccccc1)n1nc(-c2cccnc2)nc1NCc1ccc(F)cc1 [Cmpd 409] ?
Reply: < 4.00

###

# target-or-test-system: Human thrombin (Homo sapiens (Human), UniProt P00734)
# assay-comment: Thrombin protease activity inhibition assay (chromogenic substrate S-2238)
# Type: biochemical
# condition-notes: 3 nM thrombin, 125 μM S-2238, 10 min pre-incubation, RT
measured-metric: IC50

Below, each entry is followed by its recorded IC50 result.
entry_smiles=COCC(C)(C)C(=O)n1nc(-c2cccn(Cc3ccsc3)c2=O)cc1NCc1ccc(Cl)s1 recorded_value="< 100 nM"
entry_smiles=O=C(c1ccoc1)n1nc(-c2cccn(Cc3cccc(Cl)c3)c2=O)cc1NCc1ccc(Cl)s1 recorded_value="< 100 nM"

Query: I am curious: what IC50 value has been reported for O=C(c1cccc2c1OCCO2)n1nc(-c2cccn(Cc3cccnn3)c2=O)cc1NCc1ccc(Cl)s1 ?
Reply: < 100 nM

Query: For the compound CCOC(=O)Cn1cccc(-c2cc(NCc3ccc(Cl)s3)n(C(=O)c3ccccc3OC)n2)c1=O , what IC50 is on record?
Reply: < 100 nM

Query: If you can, please state the reported IC50 value of COc1ccccc1C(=O)n1nc(-c2cccn(CC#N)c2=O)cc1NCc1ccc(Cl)s1 .
Reply: < 100 nM

Query: Quick one: IC50 for Nc1cc(-c2cccn(Cc3ccccn3)c2=O)nn1C(=O)c1ccco1 ?
Reply: 1000 to 10000 nM

Query: Data request, read-out IC50, for O=C(c1cccs1)n1nc(-c2cccn(Cc3cccnc3)c2=O)cc1NCc1ccc(Cl)s1
Reply: < 100 nM

Query: Reported IC50, compound O=C(c1ccccc1)n1nc(-c2cccn(Cc3ccccn3)c2=O)cc1NCc1ccc(Cl)s1 : ____
Reply: < 100 nM

Query: Dear colleague, I am looking for the recorded IC50 of the following compound: COCCn1cccc(-c2cc(NCc3ccc(Cl)s3)n(C(=O)c3ccc(N4CCOCC4)cc3)n2)c1=O
Reply: < 100 nM

###

Recorded measurements of IC50, one per entry
# target-or-test-system: Human KLKB1 (Homo sapiens (Human))
# assay-comment: KLKB1 kallikrein activity inhibition assay (chromogenic substrate S-2302)
# Assay type: biochemical
# condition-notes: Table B

Look over these answered cases.
entry_smiles=O=C(c1cccs1)n1nc(-c2cccn(Cc3ccoc3)c2=O)cc1NCc1ccc(Cl)s1 measured_metric=IC50 recorded_value="10 to 100 µM"
entry_smiles=O=C(c1ccoc1)n1nc(-c2cccn(Cc3ccccc3)c2=O)cc1NCc1ccc(Cl)s1 measured_metric=IC50 recorded_value="10 to 100 µM"
entry_smiles=COc1ccc(C(=O)n2nc(-c3cccn(Cc4ccccc4)c3=O)cc2NCc2ccc(Cl)s2)c(OC)c1 measured_metric=IC50 recorded_value="10 to 100 µM"
entry_smiles=CC1(C(=O)n2nc(-c3cccn(Cc4ccccc4)c3=O)cc2NCc2ccc(Cl)s2)CCOCC1 measured_metric=IC50 recorded_value="> 100 µM"
entry_smiles=COCCn1cccc(-c2cc(NCc3ccc(Cl)s3)n(C(=O)C(C)(C)CO)n2)c1=O measured_metric=IC50 recorded_value="10 to 100 µM"
entry_smiles=CC1(C(=O)n2nc(-c3cccn(Cc4cccs4)c3=O)cc2NCc2ccc(Cl)s2)CCOCC1 measured_metric=IC50 recorded_value="> 100 µM"
entry_smiles=Cn1cccc(-c2cc(NCc3ccc(Cl)s3)n(C(=O)c3ccoc3)n2)c1=O measured_metric=IC50 recorded_value="1 to 10 µM"

Here is another molecule to look at.
Query: Give its IC50 value. Item: COCCn1cccc(-c2cc(NCc3ccc(Cl)s3)n(C(=O)c3cccs3)n2)c1=O
Reply: 1 to 10 µM
